// data source = patent US20230080534A1

Biological target: T1, QIEKLVEGKSQAQ (not fully specified)
T1 construct: member of the group m41; the text speaks of glycine substitution, the sheet prints alanine
T1 peptide: QIEKLVEGKSQAQ
Test: ELISA, immobilized peptide QIEKLVEGKSQAQ
No end group written: not given here.
Catalogue of OD450 absorbance readings, one per entry.
Answer field: number only, no words.

Prompt line: Need OD450 absorbance of MM07 (antibody, V domains shown, The VH and VL begin with what look like leader peptides (MDWLW..., MVSSAQ...)) VH: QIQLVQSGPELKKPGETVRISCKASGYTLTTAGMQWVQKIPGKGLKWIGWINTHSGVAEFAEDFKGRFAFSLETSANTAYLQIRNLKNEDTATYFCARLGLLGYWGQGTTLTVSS VL: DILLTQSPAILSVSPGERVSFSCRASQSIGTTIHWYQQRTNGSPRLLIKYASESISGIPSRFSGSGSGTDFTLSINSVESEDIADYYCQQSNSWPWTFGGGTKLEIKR , thanks.
Response line: 0.509

Prompt line: Need OD450 absorbance of MM08 (antibody, IgG1, V domains shown) VH: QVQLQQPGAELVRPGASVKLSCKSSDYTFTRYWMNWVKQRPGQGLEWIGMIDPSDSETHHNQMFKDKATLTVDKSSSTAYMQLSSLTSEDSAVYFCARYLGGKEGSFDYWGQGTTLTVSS VL: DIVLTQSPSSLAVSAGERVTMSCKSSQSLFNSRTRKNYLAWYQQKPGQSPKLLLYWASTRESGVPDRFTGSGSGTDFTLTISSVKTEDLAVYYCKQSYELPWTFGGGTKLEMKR , thanks.
Response line: 0.798

Prompt line: Need OD450 absorbance of MM02 (antibody, IgG2b, V domains shown) VH: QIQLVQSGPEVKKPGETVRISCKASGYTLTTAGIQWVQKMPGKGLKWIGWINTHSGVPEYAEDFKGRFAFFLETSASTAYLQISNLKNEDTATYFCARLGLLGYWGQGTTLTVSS VL: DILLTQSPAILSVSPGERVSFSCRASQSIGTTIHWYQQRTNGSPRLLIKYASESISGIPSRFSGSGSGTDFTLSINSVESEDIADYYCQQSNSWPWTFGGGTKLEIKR , thanks.
Response line: 0.894

Prompt line: Need OD450 absorbance of MM05 (antibody, IgG1, V domains shown) VH: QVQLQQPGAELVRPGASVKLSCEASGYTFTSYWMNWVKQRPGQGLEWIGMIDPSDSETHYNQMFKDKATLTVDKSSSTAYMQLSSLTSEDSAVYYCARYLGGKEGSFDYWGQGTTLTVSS VL: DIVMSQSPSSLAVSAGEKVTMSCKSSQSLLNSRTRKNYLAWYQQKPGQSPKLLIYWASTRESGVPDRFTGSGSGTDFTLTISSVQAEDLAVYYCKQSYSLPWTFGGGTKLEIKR , thanks.
Response line: 0.868

Prompt line: Need OD450 absorbance of MM14 (antibody, IgG2b, V domains shown) VH: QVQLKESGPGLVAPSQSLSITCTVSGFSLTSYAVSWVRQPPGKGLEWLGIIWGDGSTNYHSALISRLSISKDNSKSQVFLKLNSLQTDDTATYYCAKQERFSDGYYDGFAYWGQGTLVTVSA VL: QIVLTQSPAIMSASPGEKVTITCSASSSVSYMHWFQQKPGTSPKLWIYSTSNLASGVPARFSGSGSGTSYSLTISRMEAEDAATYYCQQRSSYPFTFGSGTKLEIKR , thanks.
Response line: 0.588
